Values compiled from ChEMBL document CHEMBL5260820.

assay: Ratio AUC in Wistar rat brain to plasma at 3 mg/kg, po or iv measured upto 5 hrs by HPLC-MS/MS analysis; format: ADME, organism-based; settings: brain and plasma, read-out: Ratio AUC
ASSAY_METRIC: Kp at 5 h

Form field: reported Kp at 5 h of `C[C@]12CC[C@@H]3c4ccc(OCc5ccccn5)cc4CC[C@H]3[C@@H]1CC[C@@H]2N1CCCC1`
41.1

* * *

assay: Terminal half-life in Wistar rat brain at 3 mg/kg, po or iv measured upto 5 hrs by HPLC-MS/MS analysis; assay type: ADME, organism-based; conditions: read-out: beta t1/2 (converted)
ASSAY_METRIC: half-life (h)
// return numeric value only (unit: h, not printed)

Form field: reported half-life of `C[C@]12CC[C@@H]3c4ccc(OCc5ccccn5)cc4CC[C@H]3[C@@H]1CC[C@@H]2N1CCCC1`
1.5
